Read-out: MicroRNA 122 (MIR122), gene 406906
Assay: LTEA_HepaRG_MIR122: Life Technologies and Expression Analysis (LTEA) Assay for MicroRNA 122 (MIR122) using HepaRG (AID 2283516)
Conditions: mRNA level, 48 h; actives raise or lower the signal
Active and inactive are the calls of the source. How the source made its calls: active means hit-call score of the fitted dose curve at least 0.9, where 1 is the maximum; inactive means score below 0.9.
Labels: active, inactive

CCOC(=O)CCC(=O)OCC :: inactive
CC(=O)OC/C=C(\C)CCC=C(C)C :: inactive
CNCc1cc(F)ccc1Oc1ccc(Cl)c(Cl)c1 :: active
Cc1oc(-c2ccccc2)nc1CCOc1cccc2c1ccn2CCC(=O)O :: active
CCCCc1ccc2c(n1)[C@@H](c1ccc(OC)cc1C[C@H](C)C(=O)O)[C@H](C(=O)O)[C@H]2c1ccc2c(c1)OCO2 :: inactive
NS(=O)(=O)c1cc2c(cc1Cl)NCNS2(=O)=O :: inactive
Cc1ccc2ncccc2c1 :: inactive
CCCCCCC(=O)OCC :: inactive
Cc1ccc(C)c(O)c1C :: inactive
